assayed target: Glutamate NMDA receptor
assay protocol: In vitro concentration eliciting half-maximal effect on [3H]-MK 801 radioligand binding to NMDA receptor
reported property: EC50 (µM)

[P] O=C1CNCN1O
[Q] C[C@@H]1CN(O)C(=O)[C@@H]1N
Recorded EC50 values differ for P and Q ; which one is higher? Which one? Tell me its label.
Q
(Q: 9.5 µM, P: 4.33 µM)

----------
assayed target: Glutamate receptor ionotropic, NMDA 1 (Rattus norvegicus)
assay protocol: In vitro inhibitory activity to inhibit [3H]glycine binding to NMDA receptor; IA means inactive
reported property: IC50

Before answering, review these 6 worked examples.
Using the record for CC1ONC(=O)C1N (configuration not stated) , report its IC50.
Not Active

Field entry: O=C1CCNCN1O
Not Active

Field entry: NC1CS(=O)(=O)NC1=O (configuration not stated)
Not Active

Field entry: O=C1CNCN1
Not Active

Field entry: NC1CCONC1=O (configuration not stated)
Not Active

Field entry: O=C1CCCN1O
Not Active

Further cases:
Using the record for CC1NC(C)N(O)C1=O (configuration not stated) , report its IC50.
Not Active

----------
assayed target: Glutamate receptor ionotropic, NMDA 1 (Rattus norvegicus)
assay protocol: In vitro inhibitory activity to inhibit [3H]glycine binding to NMDA receptor
reported property: IC50 (µM)

Before answering, review these 2 worked examples.
Using the record for CC1NCC(=O)N1O (centres undefined) , report its IC50.
83

Field entry: O=C1C(CO)NCN1O (centres undefined)
78

[A] CC1NCN(O)C1=O (centres undefined)
[B] C[C@@H]1CN(O)C(=O)[C@@H]1N
Look at A and B . Which one has the lower recorded IC50 number? Which one? Tell me its label.
B

----------
assay protocol: In vitro maximal effect on [3H]-MK 801 binding to NMDA receptor as compared to a basal value of 100%
reported property: ME (%)

Using the record for N[C@@H]1CONC1=O , report its ME.
122

[1] NCC(=O)O
[2] C[C@@H]1CN(O)C(=O)[C@@H]1N
Recorded ME values differ for 1 and 2 ; which one is higher? Which one? Tell me its label.
1
